# Assay details: protein stability index of a GFP-peptide fusion (GPS, HEK-293T) (PSI 1-6); higher = more stable;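 note: 24-mer peptide tiles fused after GFP, lentivirally expressed, FACS-sorted into six equal bins by GFP/DsRed ratio, decoded by Illumina sequencing, PSI is the read-weighted mean bin number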
# Particulars: treatment: MLN4924 1 uM, 8 h; c terminus: a fixed tail appended
protein stability index reference
Measured parameter: protein stability index

>>> result_number("VLCGVVMDRSLVQDAPLSDCTETI [ADD1]")
2.99
>>> result_number("AEEKERRRKEYDALKAAKREQEKK [LRRC59]")
5.39
>>> result_number("LCLLVAWSIVGMAVVKGIQSSGKV [SLC6A17]")
2.84
>>> result_number("PDFILKVVIDKHPVRFFVHKRPHV [CTDNEP1]")
2.44
>>> result_number("DINNNFPDLNTLLWEAEDRQNVPR [CPXM2]")
4.15
>>> result_number("NIRPADSRWVRDPRYREDPCKQCK [FBXO34]")
4.28
>>> result_number("SYSTSEQAELSYKKVSEGPPLRLW [DLC1]")
3.26
>>> result_number("RSHHLEMVIQLLAIMCVSCICWSP [PTGFR]")
3.14
>>> result_number("QNRVFAYLCKRVPHTVLDRQLLCL [CEP70]")
2.46
>>> result_number("SKESSKEKKLTVRQDLEDRYAEHV [C22orf31]")
5.16
>>> result_number("DFHKPFLGGFRHKVTGVEYHNAGT [IQUB]")
2.88
>>> result_number("SCPEGDASECPQATNAKDSGCSSP [PPEF2]")
5.7
>>> result_number("EKETQIIASIGRHRYIAYMANQEA [IQUB]")
2.88
>>> result_number("QRSPLGGDVLHAHLDIWKSAAWMK [SPDEF]")
2.58
>>> result_number("CCTHNNSATLSWKQPPLSTVPADG [TRIM9]")
3.02
>>> result_number("FTVRPDVTQNSTAEPSRFSSSDSD [FCHO1]")
5.06
>>> result_number("SLDGKAIKVEQATKPSFESGRRGP [RBMX]")
4.94
>>> result_number("ARPTEVLAGTQLLYAFFTRTHGDM [TRIB3]")
2.33
>>> result_number("SRSNGSSPEARDARSPSGPSGSLE [TRIM29]")
5.29
>>> result_number("RRLEAFEHPNVVRLMDVCATSRTD [CDK4]")
3.91
>>> result_number("GRDGYDYDGYRLRVEFPRSGRGTG [SRSF1]")
3.26
>>> result_number("KTNLDGMITVQLPEVPANENIKGY [PTPRD]")
4.24
>>> result_number("AVQLRHAWNPEDRSLNVFVKDDDR [SPSB4]")
4.24
>>> result_number("DMWRSENQNRAYVTLAAHFLGLGA [ZBED1]")
2.01
>>> result_number("IPEGLNYSENAPFHLSLFQGWMNL [PLD5]")
1.91
>>> result_number("YGRFIRWLNKEKGIFKIEDSAQVA [SPDEF]")
2.48
>>> result_number("DDDKGDSKETRLTLMEEVLLLGLK [GOLPH3]")
3.65

----------
protein stability index reference
# Assay details: protein stability index of a GFP-peptide fusion (GPS, HEK-293T) (PSI 1-6); higher = more stable
# Particulars: treatment: DMSO; c terminus: a fixed tail appended
Measured parameter: protein stability index

>>> result_number("YSGTFALIGAAAFLGGVVRMTISL [CLCN6]")
3.78
>>> result_number("VDLVDESGYVSGYKHAGTYDQKVQ [TPPP]")
4.04
>>> result_number("QNRVFAYLCKRVPHTVLDRQLLCL [CEP70]")
2.46
>>> result_number("DTFHQDNQPSGLIRTYLGRSPLVS [RHOBTB3]")
3.24
>>> result_number("VDLELFPSPDMECADVPLLTPSSK [ETS1]")
4.07
>>> result_number("GRDALLDQIRQGIQLKSVADGQES [WASL]")
5.43
>>> result_number("TTENENTKFEVRLLRDPADASEAH [CHGB]")
5.18
>>> result_number("MSASLNYKSFSKEQQTMDNLEKQL [TRIM55]")
4.71
>>> result_number("NLSRDVTEALILQLFSQIGPCKNC [TIA1]")
2.48
>>> result_number("LEQMIKENQEKTEDQYEENSHLTS [ETS2]")
5.7
>>> result_number("EGYILREDGKTCRRKDVCQAIDHG [MATN2]")
4.31
>>> result_number("GRYSVHNAGISFSVKKQGETVADV [MLH1]")
3.79
>>> result_number("CLTTGDVIAINYNEKIYELRVMET [UFD1]")
2.25
>>> result_number("MRHVEKMCKADLSRNFIERNHMEN [TRIM29]")
3.05
>>> result_number("AGADLPPPKIRLKPHRLGDSEHEP [PWWP2B]")
4.83
>>> result_number("NVCDDYDVTCNEFFFDRNPGAFGT [KCNG1]")
3.44
>>> result_number("GNEEEESKIFTTLDPASLAWLTEE [DDIT3]")
5.06
>>> result_number("AKRNRLAPAHVDEQVFLYENARSG [ZBED1]")
4.3
>>> result_number("TCTWKLPTLAKFSPYLGQMINLRR [PRAME]")
2.28
>>> result_number("AYIATQGPLAETTEDFWRMLWEHN [PTPRD]")
2.79
>>> result_number("LCLLVAWSIVGMAVVKGIQSSGKV [SLC6A17]")
2.76
>>> result_number("GRDGYDYDGYRLRVEFPRSGRGTG [SRSF1]")
3.17
>>> result_number("DFHKPFLGGFRHKVTGVEYHNAGT [IQUB]")
2.88
>>> result_number("QPPPPPPPPPMQPTVPSAATSQPT [CCDC6]")
5.11
>>> result_number("TQEFLSACKSLQTRQNGIQTNKPA [STX5]")
4.18
>>> result_number("VSGLDSSYLREQMLNEPLVREIVK [GAN]")
3.14
>>> result_number("LTAQGQQFHCHKAVLASCSQYFRS [KLHL14]")
2.27
>>> result_number("KKKSILMKQLQQQQHSDKTSLQGL [ISL2]")
3.86
>>> result_number("ALLADEERCLSCILAQQPDRLRDE [TRADD]")
4.28
>>> result_number("LESIPSLSQSPEPGRRGDPDTAPP [RTN2]")
5.49
>>> result_number("DEPSKPTLALEYTYGRRAKGHNTP [DYNC2LI1]")
4.48
>>> result_number("EEETYKCLECGKSFCHGSSLKRHL [ZNF449]")
3.77
>>> result_number("KEACDQHGPDLYPKFKKWCDDYFF [CPOX]")
2.31
>>> result_number("VEGKCLQSGFEMLKDVKSTLEKCE [TRIM39]")
4.31
>>> result_number("DAGEESRVQVLKNEVRRGSPVLLG [TIAF1]")
4.33
>>> result_number("LEFKLKSNDNEERLQVVKLLAKMF [PDS5B]")
2.12
>>> result_number("LKEDGMETVPWFPKKISDLDHCAN [TPH1]")
4.11
>>> result_number("KDFLTGMCLFLQSLRQKQPERLCS [GMPPB]")
2.25
>>> result_number("QEKEELRELNDRLAVYIDKVRSLE [LMNB1]")
3.72
>>> result_number("IQKNKLKLTREQEELEEALEVERQ [MNAT1]")
5.23
>>> result_number("METSPSEEDSFYRSSYPQQQGLGA [TBX5]")
4.37
>>> result_number("SDASSHANAAKHTQDSARVNPQDG [EHMT1]")
5.27
>>> result_number("NSNTPVDDFHTNDVCSFPNALVTK [FEM1B]")
4.68
>>> result_number("SGRHPSHSTTPSGPGDEVARGIAG [ARFIP2]")
4.81
>>> result_number("PREQAARFCSEIKSSKYGEGHQAW [SEPHS2]")
3.36
>>> result_number("PSMIATGSVGAAICGLQQDEEVSS [CCND2]")
5.41
>>> result_number("RAHAEIRKMSLLKFLAKVNGSDPR [MAGEA10]")
2.37
>>> result_number("YADHNYGARPPPTPPASPPPSVLI [KMT2E]")
3.06
>>> result_number("RATRAGAAEEPGVRGLLASLFAFK [C2CD2L]")
3.1
>>> result_number("LPPSMERGYPPPRDSYSSSSRGAP [RBMX]")
4.5
>>> result_number("QYIAQFTSQFLSLQCLQALYVDSL [PRAME]")
3.24
>>> result_number("YPDQSPSEDWTMEERFRPLTFHGL [CLCN6]")
3.23
>>> result_number("ETSVFDQFGIKDVFDNAIRAALIS [RHOBTB1]")
2.3

----------
# Assay details: protein stability index of a GFP-peptide fusion (GPS, HEK-293T) (PSI 1-6); higher = more stable
# Particulars: treatment: DMSO; c terminus: a fixed tail appended
protein stability index reference
Measured parameter: protein stability index

>>> result_number("TLMTMAIRIIDRALKEDFGFKHRL [PRIM1]")
2.99
>>> result_number("LDLKRQYDRVAQLDQLLHYRKKSA [CHGB]")
3.23
>>> result_number("QPLSPASSSYSVSSPRSVDSYSST [ATF6]")
4.38
>>> result_number("KFLAKVNGSDPRSFPLWYEEALKD [MAGEA10]")
2.62
>>> result_number("EQWDRLLVLYPTSLAIFSEELDGL [PLEKHN1]")
2.37
>>> result_number("RMTSAAHYYPKLMSIMGNVLRFLP [GFOD1]")
2.32
>>> result_number("THIMKGEDDALSDKHGCPAYVSPE [TRIB1]")
5.12
>>> result_number("SVVTTARMQVLKRQVQSLMVHQRK [SMARCE1]")
2.79
>>> result_number("QMPQEEVELLPPAPKGKGRKPAAG [BRD3]")
4.98
>>> result_number("ASCCIDPREDGASVNDQCGFGVLR [TSPAN10]")
3.44
>>> result_number("LGDRLNVEVDTAPTVDLNQVLNET [KRT34]")
4.87
>>> result_number("EYDYLFKVVLIGDSGVGKSNLLSR [RAB11A]")
2.6
>>> result_number("VDTLNVKDIAPEKQLLNSAVIAQQ [DLC1]")
4.53
>>> result_number("ISQQDPESDSQGQGNGLFYSSGPQ [ZC2HC1C]")
4.83
>>> result_number("VRGLLASLFAFKSFRENWQRAWVR [C2CD2L]")
2.3
>>> result_number("NATLTQYQLLATHVPTVWAIDQYR [RHOBTB2]")
2.61
>>> result_number("TWMFFFMMCVAERTYKQRFLFAKL [PHTF1]")
2.83
>>> result_number("KEHPDVQLLEDAILIIQGVLSDIN [NET1]")
2.49
>>> result_number("MCEQCDVFYCDPCRLRCHPPRGPL [TRIM9]")
2.8
>>> result_number("AKEMSVPFYTSRIDEVLLHQDVDL [GFOD1]")
3.74
>>> result_number("SSDHLFLFGGFTTDKQPLSDAWTY [KLHDC2]")
2.25
>>> result_number("EDLELKKKIFAQLDSIIDDRVILS [CRYL1]")
3.28
>>> result_number("AMSTLGVIEAIAQITVKALPKPPG [PTPRD]")
2.21
>>> result_number("DSDEATAARLLFNMAGVTFRKFIP [DCTD]")
2.55
>>> result_number("ERSRGRSISRGRHARTHPQTALLE [MATN2]")
4.31
>>> result_number("ALGGLQSWRVGVVRVRQDSGAEGH [TRIM35]")
2.95
>>> result_number("NETKSQAFVSNSPKLFCPKNRSFD [PLD5]")
4.21
>>> result_number("NSTGSGRGKKLMVLTEPILIETYT [TPRG1]")
2.57
>>> result_number("RRVGILGEELADVGGVLRGLNHSL [SCARA5]")
2.9
>>> result_number("CTMEPEPVQPGMLIDVCKYLGSLQ [TRIM35]")
2.43
>>> result_number("YVDSPALTNIWMARTCAKQNINAP [C22orf31]")
3
>>> result_number("KAMAKLSKLASNGTPMGTFAPLWE [FCHO1]")
2.23
>>> result_number("AVSTEDLKECLKKQLEFCFSRENL [LARP4]")
2.65
>>> result_number("IVGSQGAEGALEEVPLEVLRQRES [TBC1D10A]")
5.17
>>> result_number("ILNPHVHVIGEDAACIAYIRLTQY [CAMK2B]")
2.51
>>> result_number("DLSAANEKNLLLQNQVDELERKFR [LRRC45]")
3.96
>>> result_number("QTLDVNRDGGLCVNDLAVGLRRLG [SLC25A25]")
2.98
>>> result_number("WIKEEAAERYLYFPNWAMALLITL [SLC6A17]")
2.67
>>> result_number("CLGVHCDFHQGLLSFYNARTKQVL [FSD1]")
2.42
>>> result_number("MAVTGWLESLRTAQKTALLQDGRR [DPCD]")
2.51
>>> result_number("KESRAQTLQNGRRHIHHLGNQLQL [BRF1]")
3.55
>>> result_number("HSALGGTKKKKKTIVTDVFQGSMR [USP39]")
4.02
>>> result_number("VDCACLKENPECPVLKRSSESMEN [KMT2E]")
4.96
>>> result_number("YLRKGRGETRICKIYDSPCLPEAE [RAD51]")
3.65
>>> result_number("PTQVPAAEDYLTWKEWGFTGVQEV [SPAG8]")
3.5
>>> result_number("DAEGLAARDVQKIIGDYFSDQDPR [INTS4]")
4.95
>>> result_number("ATYISEVHEHDGHLYLGSFRSPFL [APMAP]")
2.37
>>> result_number("VGTAAVNMCLVATGGADAYYEMGI [IMPA1]")
2.71
>>> result_number("KMGLQERSETFLEVWGNALLRPPV [DNAAF3]")
2.52
>>> result_number("VPVPPAAAPPPPATPIVPVVPPTP [BRD3]")
4.75
>>> result_number("FLSYYRLTRFLSRVIKCDPDCLRA [CCND1]")
2.23
>>> result_number("YLQDHEKKLRLVFKSLDKKNDGRI [SLC25A25]")
3.3
>>> result_number("ALKLIIRLFLVEDLVDSLKLAVFM [RTN3]")
3.69
